ASSAY INFO: Toxicity and toxicokinetics in rats, IV twice weekly for 29 d
Assay type: in vivo, Sprague-Dawley rats
CONDITION LABEL: Sprague-Dawley, rat, plasma, iv; rats, 1 mg/kg/dose (NOAEL), d 29 of dosing; read-out: AUC0-24
Excerpt: Ninety-six male and female Sprague-Dawley rats (6-7 weeks old) were received from Charles River Laboratories, (Raleigh, N.C.) and catheterized via a femoral vein prior to arrival. Animals were acclimated in individual stainless-steel cages with access to water and Certified Rodent Diet #2014C (Envigo RMS) ad libitum for 6 d prior to study initiation. […]
READOUT KIND: AUC(0-t) (ng·h/mL)

{"columns": ["GIVEN SMILES", "MEASURED VALUE"],
 "data": [
  ["CO[C@H]1/C=C\\C=C(/C)C(=O)NC2=CC(=O)C(NCCCCCC[P+](c3ccccc3)(c3ccccc3)c3ccccc3)=C(C[C@@H](C)C[C@H](OC)[C@H](O)[C@@H](C)/C=C(\\C)[C@@H]1OC(N)=O)C2=O", 174]
]}

###

ASSAY INFO: Toxicity in beagle dogs, IV infusion for 36 d
Format: in vivo
CONDITION LABEL: beagle, dog, in vivo, iv; dogs, 3.33 mg/kg/dose (NOAEL), d 36 of dosing, both sexes; read-out: AUC0-24

{"columns": ["COMPOUND", "AUC(0-t) / ng·h/mL"],
 "data": [
  ["CO[C@H]1/C=C\\C=C(/C)C(=O)NC2=CC(=O)C(NCCCCCC[P+](c3ccccc3)(c3ccccc3)c3ccccc3)=C(C[C@@H](C)C[C@H](OC)[C@H](O)[C@@H](C)/C=C(\\C)[C@@H]1OC(N)=O)C2=O [Gamitrinib]", 1740]
]}

###

ASSAY INFO: Gamitrinib pharmacokinetics (PK) in rat plasma, single IV dose
Type: in vivo, Sprague-Dawley rats
CONDITION LABEL: Sprague-Dawley, rat, plasma, intravenous, 5 mg/kg, 5 mg/kg IV; 1440 min; animals 1-3

{"columns": ["GIVEN SMILES", "concentration at 1440 min [ng/mL]"],
 "data": [
  ["CO[C@H]1/C=C\\C=C(/C)C(=O)NC2=CC(=O)C(NCCCCCC[P+](c3ccccc3)(c3ccccc3)c3ccccc3)=C(C[C@@H](C)C[C@H](OC)[C@H](O)[C@@H](C)/C=C(\\C)[C@@H]1OC(N)=O)C2=O", 11.9]
]}

###

ASSAY INFO: Gamitrinib pharmacokinetics (PK) in rat plasma, single IV dose
Type: in vivo, Sprague-Dawley rats
CONDITION LABEL: Sprague-Dawley, rat, plasma, iv, 5 mg/kg, 5 mg/kg IV; individual animals Rat 1-3; read-out: Vss

{"columns": ["GIVEN SMILES", "Vd, L/kg"],
 "data": [
  ["CO[C@H]1/C=C\\C=C(/C)C(=O)NC2=CC(=O)C(NCCCCCC[P+](c3ccccc3)(c3ccccc3)c3ccccc3)=C(C[C@@H](C)C[C@H](OC)[C@H](O)[C@@H](C)/C=C(\\C)[C@@H]1OC(N)=O)C2=O", 58.2]
]}

###

ASSAY INFO: in vitro
CONDITION LABEL: human, Caco-2, Pexact Efflux Ratio
READOUT KIND: efflux ratio at 90 min

{"columns": ["GIVEN SMILES", "MEASURED VALUE"],
 "data": [
  ["CO[C@H]1/C=C\\C=C(/C)C(=O)NC2=CC(=O)C(NCCCCCC[P+](c3ccccc3)(c3ccccc3)c3ccccc3)=C(C[C@@H](C)C[C@H](OC)[C@H](O)[C@@H](C)/C=C(\\C)[C@@H]1OC(N)=O)C2=O", 5.54]
]}

###

ASSAY INFO: Phase I, cytochrome P450-mediated human liver microsome metabolism
CONDITION LABEL: human, liver microsomes
READOUT KIND: half-life at 0.5 μM (min)

{"columns": ["GIVEN SMILES", "MEASURED VALUE"],
 "data": [
  ["CO[C@H]1/C=C\\C=C(/C)C(=O)NC2=CC(=O)C(NCCCCCC[P+](c3ccccc3)(c3ccccc3)c3ccccc3)=C(C[C@@H](C)C[C@H](OC)[C@H](O)[C@@H](C)/C=C(\\C)[C@@H]1OC(N)=O)C2=O", 16.7]
]}

###

ASSAY INFO: Gamitrinib pharmacokinetics (PK) in rat plasma, single IV dose
Assay type: in vivo, Sprague-Dawley rats
CONDITION LABEL: Sprague-Dawley, rat, plasma, intravenous, 5 mg/kg, 5 mg/kg IV; 120 min; animals 1-3

{"columns": ["COMPOUND", "concentration at 120 min"],
 "data": [
  ["CO[C@H]1/C=C\\C=C(/C)C(=O)NC2=CC(=O)C(NCCCCCC[P+](c3ccccc3)(c3ccccc3)c3ccccc3)=C(C[C@@H](C)C[C@H](OC)[C@H](O)[C@@H](C)/C=C(\\C)[C@@H]1OC(N)=O)C2=O [Gamitrinib]", "46.7 ng/mL"]
]}

###

SYSTEM UNDER TEST: Nav1.5 (Homo sapiens)
Sequence (Q14524 whole entry): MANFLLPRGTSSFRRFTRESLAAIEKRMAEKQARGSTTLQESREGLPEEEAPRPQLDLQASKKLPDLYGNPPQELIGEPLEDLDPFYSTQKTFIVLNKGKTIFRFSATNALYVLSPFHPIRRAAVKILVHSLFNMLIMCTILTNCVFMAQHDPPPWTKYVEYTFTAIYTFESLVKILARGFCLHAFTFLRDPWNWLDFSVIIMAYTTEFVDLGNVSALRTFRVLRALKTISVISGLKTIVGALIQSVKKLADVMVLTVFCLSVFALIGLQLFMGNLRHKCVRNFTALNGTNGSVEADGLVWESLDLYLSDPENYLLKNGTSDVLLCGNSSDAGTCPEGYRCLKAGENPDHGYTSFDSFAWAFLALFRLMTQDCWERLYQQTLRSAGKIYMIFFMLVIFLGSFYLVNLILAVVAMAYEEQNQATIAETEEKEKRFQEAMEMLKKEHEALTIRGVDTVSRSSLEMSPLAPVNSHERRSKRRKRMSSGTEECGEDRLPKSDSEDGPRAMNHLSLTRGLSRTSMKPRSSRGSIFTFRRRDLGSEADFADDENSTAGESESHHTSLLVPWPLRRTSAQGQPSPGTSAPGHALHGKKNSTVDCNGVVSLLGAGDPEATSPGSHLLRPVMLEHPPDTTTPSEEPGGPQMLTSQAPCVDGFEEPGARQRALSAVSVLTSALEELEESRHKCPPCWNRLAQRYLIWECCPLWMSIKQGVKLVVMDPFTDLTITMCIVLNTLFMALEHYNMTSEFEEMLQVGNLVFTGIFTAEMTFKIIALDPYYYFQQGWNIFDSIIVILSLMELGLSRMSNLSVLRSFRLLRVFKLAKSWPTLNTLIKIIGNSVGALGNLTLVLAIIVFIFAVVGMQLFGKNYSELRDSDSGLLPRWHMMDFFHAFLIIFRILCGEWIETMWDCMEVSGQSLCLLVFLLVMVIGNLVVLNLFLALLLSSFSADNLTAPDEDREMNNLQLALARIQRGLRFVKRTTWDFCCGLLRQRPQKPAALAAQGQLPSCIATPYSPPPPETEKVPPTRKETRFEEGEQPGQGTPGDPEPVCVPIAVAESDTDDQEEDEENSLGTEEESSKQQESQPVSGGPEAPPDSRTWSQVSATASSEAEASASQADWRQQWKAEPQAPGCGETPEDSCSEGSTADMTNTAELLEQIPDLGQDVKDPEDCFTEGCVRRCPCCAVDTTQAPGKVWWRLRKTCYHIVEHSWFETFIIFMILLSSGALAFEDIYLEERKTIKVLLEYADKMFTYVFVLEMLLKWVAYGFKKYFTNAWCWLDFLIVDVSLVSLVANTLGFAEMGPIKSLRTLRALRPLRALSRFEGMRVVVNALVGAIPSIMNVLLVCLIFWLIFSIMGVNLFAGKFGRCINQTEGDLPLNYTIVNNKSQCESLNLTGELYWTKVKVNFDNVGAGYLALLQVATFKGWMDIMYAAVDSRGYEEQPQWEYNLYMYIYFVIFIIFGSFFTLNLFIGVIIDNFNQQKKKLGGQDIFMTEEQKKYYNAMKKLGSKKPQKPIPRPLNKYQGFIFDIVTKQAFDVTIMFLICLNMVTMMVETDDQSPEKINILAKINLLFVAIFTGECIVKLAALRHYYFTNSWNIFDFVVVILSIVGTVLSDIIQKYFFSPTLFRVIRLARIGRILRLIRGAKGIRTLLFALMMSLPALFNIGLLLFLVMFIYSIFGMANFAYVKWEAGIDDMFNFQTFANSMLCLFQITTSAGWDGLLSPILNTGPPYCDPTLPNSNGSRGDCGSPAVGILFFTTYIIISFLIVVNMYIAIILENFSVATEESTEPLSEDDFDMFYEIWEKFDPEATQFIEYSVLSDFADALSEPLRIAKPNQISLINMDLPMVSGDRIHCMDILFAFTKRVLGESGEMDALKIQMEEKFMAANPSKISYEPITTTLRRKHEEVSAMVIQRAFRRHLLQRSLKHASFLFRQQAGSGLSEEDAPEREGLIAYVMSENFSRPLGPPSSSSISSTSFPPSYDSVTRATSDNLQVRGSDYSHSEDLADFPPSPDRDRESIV
ASSAY INFO: Ion channel screening, Nav1.5
Assay type: cell-based
CONDITION LABEL: n=3, pulse 26, read-out: inhibition of Nav1.5 currents

{"columns": ["COMPOUND", "SYSTEM UNDER TEST", "UNIT INFO", "inhibition at 10 µM"],
 "data": [
  ["CO[C@H]1/C=C\\C=C(/C)C(=O)NC2=CC(=O)C(NCCCCCC[P+](c3ccccc3)(c3ccccc3)c3ccccc3)=C(C[C@@H](C)C[C@H](OC)[C@H](O)[C@@H](C)/C=C(\\C)[C@@H]1OC(N)=O)C2=O [Gamitrinib]", "Nav1.5 (Homo sapiens)", "%", 22.3]
]}

###

ASSAY INFO: Gamitrinib pharmacokinetics (PK) in rat plasma, single IV dose
Assay type: in vivo, Sprague-Dawley rats
CONDITION LABEL: Sprague-Dawley, rat, plasma, iv, 5 mg/kg, 5 mg/kg IV; mean, n=3; read-out: Vz

{"columns": ["GIVEN SMILES", "Vd / L/kg"],
 "data": [
  ["CO[C@H]1/C=C\\C=C(/C)C(=O)NC2=CC(=O)C(NCCCCCC[P+](c3ccccc3)(c3ccccc3)c3ccccc3)=C(C[C@@H](C)C[C@H](OC)[C@H](O)[C@@H](C)/C=C(\\C)[C@@H]1OC(N)=O)C2=O", 91.2]
]}

###

ASSAY INFO: Toxicity and toxicokinetics in rats, IV twice weekly for 29 d
Type: in vivo, Sprague-Dawley rats
CONDITION LABEL: Sprague-Dawley, rat, plasma, iv; rats, 10 mg/kg/dose (STD 10), d 29; read-out: AUC0-24

{"columns": ["MOLECULE", "AUC(0-t)"],
 "data": [
  ["CO[C@H]1/C=C\\C=C(/C)C(=O)NC2=CC(=O)C(NCCCCCC[P+](c3ccccc3)(c3ccccc3)c3ccccc3)=C(C[C@@H](C)C[C@H](OC)[C@H](O)[C@@H](C)/C=C(\\C)[C@@H]1OC(N)=O)C2=O [Gamitrinib]", "1300 ng·h/mL"]
]}

###

ASSAY INFO: Gamitrinib pharmacokinetics (PK) in rat plasma, single IV dose
Format: in vivo, Sprague-Dawley rats
CONDITION LABEL: Sprague-Dawley, rat, plasma, iv, 5 mg/kg, 5 mg/kg IV, Sprague-Dawley rats; individual animals Rat 1-3; read-out: t1/2 (converted)
READOUT KIND: half-life (h)

{"columns": ["MOLECULE", "MEASURED VALUE"],
 "data": [
  ["CO[C@H]1/C=C\\C=C(/C)C(=O)NC2=CC(=O)C(NCCCCCC[P+](c3ccccc3)(c3ccccc3)c3ccccc3)=C(C[C@@H](C)C[C@H](OC)[C@H](O)[C@@H](C)/C=C(\\C)[C@@H]1OC(N)=O)C2=O [Gamitrinib]", 11.6]
]}

###

ASSAY INFO: Gamitrinib pharmacokinetics (PK) in rat plasma, single IV dose
Assay type: in vivo, Sprague-Dawley rats
CONDITION LABEL: Sprague-Dawley, rat, plasma, iv, 5 mg/kg, 5 mg/kg IV; mean, n=3; read-out: CL (clearance)

{"columns": ["COMPOUND", "clearance"],
 "data": [
  ["CO[C@H]1/C=C\\C=C(/C)C(=O)NC2=CC(=O)C(NCCCCCC[P+](c3ccccc3)(c3ccccc3)c3ccccc3)=C(C[C@@H](C)C[C@H](OC)[C@H](O)[C@@H](C)/C=C(\\C)[C@@H]1OC(N)=O)C2=O [Gamitrinib]", "85.6 mL/min/kg"]
]}

###

ASSAY INFO: Gamitrinib pharmacokinetics (PK) in rat plasma, single IV dose
Type: in vivo, Sprague-Dawley rats
CONDITION LABEL: Sprague-Dawley, rat, plasma, iv, 5 mg/kg, 5 mg/kg IV; individual animals Rat 1-3; read-out: MRT

{"columns": ["COMPOUND", "MRT"],
 "data": [
  ["CO[C@H]1/C=C\\C=C(/C)C(=O)NC2=CC(=O)C(NCCCCCC[P+](c3ccccc3)(c3ccccc3)c3ccccc3)=C(C[C@@H](C)C[C@H](OC)[C@H](O)[C@@H](C)/C=C(\\C)[C@@H]1OC(N)=O)C2=O [Gamitrinib]", "5.54 h"]
]}
